Measured LT, lag time, listed per entry for reference.
EXPERIMENT_SUMMARY: Skin permeation from hydrogels in Franz diffusion cells
Type: in vitro ADME
MEASUREMENT_SETUP: from hydrogel HL-E; porcine skin
MEASUREMENT_TYPE: LT, lag time (h)

* O=C(O)c1cc(O)c(O)c(O)c1 | 0.16
* COc1cc(C(=O)O)ccc1O | 1.55
* O=C(O)/C=C/c1ccc(O)c(O)c1 | 1.22
* O=C(O)c1ccc(O)c(O)c1 | 0.63

---

The molecules listed here are annotated with their Phenolic acids concentration in the acceptor fluid (cumulative mass).
EXPERIMENT_SUMMARY: Skin permeation from hydrogels in Franz diffusion cells
Type: in vitro ADME
MEASUREMENT_SETUP: from hydrogel HL-E; 3 h; porcine skin
Marks after values point to notes of the source that are not given here.
MEASUREMENT_TYPE: Phenolic acids concentration in the acceptor fluid (cumulative mass)

• COc1cc(C(=O)O)ccc1O [Vanillic acid, vanillic acid] = 0.49 ± 0.25^a µg/cm^2
• O=C(O)c1ccc(O)c(O)c1 [Protocatechuic acid, protocatechuic acid] = 5.86 ± 0.28^a µg/cm^2
• O=C(O)/C=C/c1ccc(O)c(O)c1 [Caffeic acid, caffeic acid] = 2.58 ± 0.20^a µg/cm^2
• O=C(O)/C=C/c1ccc(O)cc1 [Coumaric acid, coumaric acid] = 4.97 ± 0.09^a µg/cm^2
• O=C(O)c1cc(O)c(O)c(O)c1 [Gallic acid, gallic acid] = 6.18 ± 0.35^a µg/cm^2

---

EXPERIMENT_SUMMARY: Skin permeation from hydrogels in Franz diffusion cells
Format: in vitro ADME
MEASUREMENT_SETUP: from hydrogel HL-E; porcine skin
MEASUREMENT_TYPE: Q%24h, percentage of applied dose in acceptor phase after 24 h (%)

• O=C(O)c1cc(O)c(O)c(O)c1 [Gallic acid, gallic acid] = 5.78
• O=C(O)/C=C/c1ccc(O)cc1 [Coumaric acid, coumaric acid] = 2.62
• O=C(O)/C=C/c1ccc(O)c(O)c1 [Caffeic acid, caffeic acid] = 0.68
• O=C(O)c1ccc(O)c(O)c1 [Protocatechuic acid, protocatechuic acid] = 4.49
• COc1cc(C(=O)O)ccc1O [Vanillic acid, vanillic acid] = 4.77

---

EXPERIMENT_SUMMARY: Skin permeation from hydrogels in Franz diffusion cells
Format: in vitro ADME
MEASUREMENT_SETUP: from hydrogel HL-E; porcine skin
Let's look at some molecules and their measured JSS, steady-state flux.
MEASUREMENT_TYPE: JSS, steady-state flux

* COc1cc(C(=O)O)ccc1O | 0.54 ± 0.03 µg/cm^2·h
* O=C(O)/C=C/c1ccc(O)cc1 | 1.35 ± 0.17 µg/cm^2·h
* O=C(O)c1cc(O)c(O)c(O)c1 | 2.08 ± 0.08 µg/cm^2·h
* O=C(O)c1ccc(O)c(O)c1 | 2.10 ± 0.17 µg/cm^2·h
* O=C(O)/C=C/c1ccc(O)c(O)c1 | 0.84 ± 0.02 µg/cm^2·h

---

Phenolic acids concentration in the acceptor fluid (cumulative mass) values for the compounds below.
EXPERIMENT_SUMMARY: Skin permeation from hydrogels in Franz diffusion cells
Type: in vitro ADME
MEASUREMENT_SETUP: from hydrogel HL-E; 24 h; porcine skin
Marks after values point to notes of the source that are not given here.
MEASUREMENT_TYPE: Phenolic acids concentration in the acceptor fluid (cumulative mass)

• O=C(O)c1ccc(O)c(O)c1 = 37.95 ± 2.96^a µg/cm^2
• O=C(O)c1cc(O)c(O)c(O)c1 = 49.62 ± 2.18^a µg/cm^2
• O=C(O)/C=C/c1ccc(O)c(O)c1 = 7.83 ± 0.83^a µg/cm^2
• COc1cc(C(=O)O)ccc1O = 15.61 ± 2.42^a µg/cm^2
• O=C(O)/C=C/c1ccc(O)cc1 = 12.45 ± 0.26^a µg/cm^2

---

# Lookup of reported Phenolic acids concentration in the acceptor fluid (cumulative mass) keyed by entry
EXPERIMENT_SUMMARY: Skin permeation from hydrogels in Franz diffusion cells
Assay type: in vitro ADME
MEASUREMENT_SETUP: from hydrogel HL-E; 8 h; porcine skin
Marks after values point to notes of the source that are not given here.
MEASUREMENT_TYPE: Phenolic acids concentration in the acceptor fluid (cumulative mass)

• O=C(O)c1cc(O)c(O)c(O)c1 [Gallic acid, gallic acid] = 16.09 ± 1.19^a µg/cm^2
• O=C(O)/C=C/c1ccc(O)c(O)c1 [Caffeic acid, caffeic acid] = 3.30 ± 0.13^a µg/cm^2
• O=C(O)c1ccc(O)c(O)c1 [Protocatechuic acid, protocatechuic acid] = 11.94 ± 1.91^a µg/cm^2
• O=C(O)/C=C/c1ccc(O)cc1 [Coumaric acid, coumaric acid] = 8.95 ± 1.00^a µg/cm^2
• COc1cc(C(=O)O)ccc1O [Vanillic acid, vanillic acid] = 3.92 ± 1.06^a µg/cm^2

---

EXPERIMENT_SUMMARY: Skin permeation from hydrogels in Franz diffusion cells
Type: in vitro ADME
MEASUREMENT_SETUP: from hydrogel HL-E; 5 h; porcine skin
Marks after values point to notes of the source that are not given here.
MEASUREMENT_TYPE: Phenolic acids concentration in the acceptor fluid (cumulative mass)

• O=C(O)/C=C/c1ccc(O)cc1 = 7.04 ± 0.75^a µg/cm^2
• COc1cc(C(=O)O)ccc1O = 1.76 ± 0.82^a µg/cm^2
• O=C(O)c1cc(O)c(O)c(O)c1 = 10.24 ± 0.97^a µg/cm^2
• O=C(O)/C=C/c1ccc(O)c(O)c1 = 2.84 ± 0.07^a µg/cm^2
• O=C(O)c1ccc(O)c(O)c1 = 8.59 ± 0.65^a µg/cm^2

---

EXPERIMENT_SUMMARY: Skin permeation from hydrogels in Franz diffusion cells
Assay type: in vitro ADME
MEASUREMENT_SETUP: from hydrogel HS-E; 24 h; porcine skin
Marks after values point to notes of the source that are not given here.
MEASUREMENT_TYPE: Phenolic acids concentration in the acceptor fluid (cumulative mass)

* O=C(O)c1ccc(O)c(O)c1 [Protocatechuic acid, protocatechuic acid] | 4.57 ± 0.30^b µg/cm^2
* COc1cc(C(=O)O)ccc1O [Vanillic acid, vanillic acid] | 0.95 ± 0.15^b µg/cm^2
* O=C(O)c1cc(O)c(O)c(O)c1 [Gallic acid, gallic acid] | 7.19 ± 0.47^b µg/cm^2
* O=C(O)/C=C/c1ccc(O)cc1 [Coumaric acid, coumaric acid] | 5.93 ± 0.08^b µg/cm^2

---

EXPERIMENT_SUMMARY: Skin permeation from hydrogels in Franz diffusion cells
Type: in vitro ADME
MEASUREMENT_SETUP: from hydrogel HS-E; porcine skin
MEASUREMENT_TYPE: Q%24h, percentage of applied dose in acceptor phase after 24 h (%)

* O=C(O)c1cc(O)c(O)c(O)c1 | 4.78
* COc1cc(C(=O)O)ccc1O | 3.28
* O=C(O)c1ccc(O)c(O)c1 | 2.45
* O=C(O)/C=C/c1ccc(O)cc1 | 5.37

---

EXPERIMENT_SUMMARY: Skin permeation from hydrogels in Franz diffusion cells
Assay type: in vitro ADME
MEASUREMENT_SETUP: from hydrogel HL-E; porcine skin
Method: Permeation experiments were conducted using Franz diffusion cells (Phoenix DB-6, ABL&E-JASCO, Wien, Austria), with a donor chamber area of 1 cm^2 and 10 mL acceptor chamber filled with phosphate-buffered saline (PBS, pH 7.4). […] Skin samples were wrapped in aluminum foil, frozen at −20 °C for no longer than three months. […] Skin impedance was measured by immersing the probe tips in the donor and acceptor chambers filled with PBS. […]
Quick rule for you: D·10^4, diffusion coefficient at 7 cm^2/h or higher means True, lower means False.

• O=C(O)/C=C/c1ccc(O)c(O)c1 = False
• COc1cc(C(=O)O)ccc1O = False
• O=C(O)c1cc(O)c(O)c(O)c1 = True
• O=C(O)c1ccc(O)c(O)c1 = False
• O=C(O)/C=C/c1ccc(O)cc1 = True
